Read-out: Interleukin-6 (IL6), IL6 (gene 3569)
Assay: BSK_CASM3C_IL6: BioMAP Diversity Plus: CASM3C Assay for Interleukin-6 (IL6) Biomarker Activity for (AID 2283040)
Conditions: primary human coronary artery smooth muscle cells; actives raise or lower the signal
Activity calls are given as the source filed them. How the source made its calls: active means hit-call score of the fitted dose curve at least 0.9, where 1 is the maximum; inactive means score below 0.9.
Your answer must be one of the following: active, inactive

Reference set, count: 10
O=[N+]([O-])/N=C1\NCCN1Cc1ccc(Cl)nc1
inactive
CNC(=O)Oc1cccc(N=CN(C)C)c1
inactive
CCOC1Oc2ccc(OS(C)(=O)=O)cc2C1(C)C (configuration not stated)
inactive
CC(C)OC(=O)Nc1cccc(Cl)c1
inactive
COc1cc(OC)nc(NC(=O)NS(=O)(=O)c2cc(NC=O)ccc2C(=O)N(C)C)n1
inactive
CCOc1nc(NC)nc(NC(=O)NS(=O)(=O)c2ccccc2C(=O)OC)n1
inactive
CCCN(CCC)c1c([N+](=O)[O-])cc(C(F)(F)F)cc1[N+](=O)[O-]
inactive
N#Cc1c(Cl)c(Cl)c(Cl)c(C#N)c1Cl
active
O=[N+]([O-])c1c(Cl)c(Cl)c(Cl)c(Cl)c1Cl
inactive
CNC(=O)Oc1ccccc1OC(C)C
inactive

Hello, I am checking results. What call was entered for CNC(=O)CSP(=S)(OC)OC ?
inactive

====

Read-out: Transforming growth factor beta 1 (TGFb1), TGFB1 (gene 7040)
Assay: BSK_KF3CT_TGFb1: BioMAP Diversity Plus: KF3CT Assay for Transforming growth factor beta 1 (TGFb1) Biomarker Activity (AID 2283072)
Conditions: primary human keratinocytes with fibroblasts; actives raise or lower the signal
Activity calls are given as the source filed them. Rule for the calls: active = hit-call score of the fitted dose curve at least 0.9, where 1 is the maximum; inactive = score below 0.9.
Your answer must be one of the following: 1 (yes) for active, 0 (no) for inactive

Hello, I am checking results. What call was entered for CCN(CC)C(=O)SCc1ccc(Cl)cc1 ?
0 (no)

Hello, I am checking results. What call was entered for O=C(O)COc1ccc(Cl)cc1Cl ?
0 (no)

Hello, I am checking results. What call was entered for Cc1cc(C)nc(NC(=O)NS(=O)(=O)c2ccccc2C(=O)OC2COC2)n1 ?
0 (no)

Hello, I am checking results. What call was entered for CC(C)N(C(=O)COc1nnc(C(F)(F)F)s1)c1ccc(F)cc1 ?
0 (no)

Hello, I am checking results. What call was entered for O=C1c2ccccc2C(=O)N1SC(Cl)(Cl)Cl ?
0 (no)

Hello, I am checking results. What call was entered for CC[C@H](C)[C@H]1O[C@]2(C=C[C@@H]1C)C[C@@H]1C[C@@H](C/C=C(\C)[C@@H](O[C@H]3C[C@H](OC)[C@@H](O[C@H]4C[C@H](OC)[C@@H](O)[C@H](C)O4)[C@H](C)O3)[C@@H](C)/C=C/C=C3\CO[C@@H]4[C@H](O)C(C)=C[C@@H](C(=O)O1)[C@]34O)O2 (tested in a mixture with another compound) ?
1 (yes)

Hello, I am checking results. What call was entered for COP(=O)(OC)OC=C(Cl)Cl ?
0 (no)

Hello, I am checking results. What call was entered for COP(=S)(OC)Oc1ccc(SC)c(C)c1 ?
0 (no)

Hello, I am checking results. What call was entered for COc1cc(OC)nc(NC(=O)NS(=O)(=O)c2cc(NC=O)ccc2C(=O)N(C)C)n1 ?
0 (no)

Hello, I am checking results. What call was entered for CNC(=O)/C=C(\C)OP(=O)(OC)OC ?
0 (no)

Hello, I am checking results. What call was entered for CN1CSC(=S)N(C)C1 ?
0 (no)

Hello, I am checking results. What call was entered for O=S1OCC2C(CO1)C1(Cl)C(Cl)=C(Cl)C2(Cl)C1(Cl)Cl (stereo not drawn) ?
0 (no)

Hello, I am checking results. What call was entered for Clc1ccccc1-c1nnc(-c2ccccc2Cl)nn1 ?
0 (no)

Hello, I am checking results. What call was entered for OCCOc1ccccc1 ?
0 (no)

Hello, I am checking results. What call was entered for O=C(O)C(F)(F)C(F)(F)C(F)(F)C(F)(F)C(F)(F)C(F)(F)C(F)(F)F ?
0 (no)

Hello, I am checking results. What call was entered for Cc1[nH]c(=O)n(C(C)(C)C)c(=O)c1Cl ?
0 (no)

Hello, I am checking results. What call was entered for COC(=O)c1ccccc1S(=O)(=O)NC(=O)Nc1nc(C)nc(OC)n1 ?
0 (no)

====

Read-out: Phosphatase and tensin (PTEN), PTEN (gene 5728)
Experiment: LTEA_HepaRG_PTEN: Life Technologies and Expression Analysis (LTEA) Assay for Phosphatase and tensin (PTEN) using HepaRG (AID 2283523)
Details: mRNA level, 48 h; actives raise or lower the signal
Activity calls are given as the source filed them. The calls were made as follows: active = hit-call score of the fitted dose curve at least 0.9, where 1 is the maximum; inactive = score below 0.9.
Your answer must be one of the following: active, inactive

Reference set, count: 4
CN1CSC(=S)N(C)C1
inactive
Oc1cc(Cl)ccc1Oc1ccc(Cl)cc1Cl
inactive
CNC(=O)CSP(=S)(OC)OC
inactive
COP(=O)(OC)OC=C(Cl)Cl
inactive

Hello, I am checking results. What call was entered for CC(C)(C)C(O)C(Oc1ccc(Cl)cc1)n1cncn1 (centres undefined) ?
inactive

Hello, I am checking results. What call was entered for OCCOc1ccccc1 ?
inactive

Hello, I am checking results. What call was entered for COc1nn(CSP(=S)(OC)OC)c(=O)s1 ?
inactive

Hello, I am checking results. What call was entered for CCC(C)(NC(=O)c1cc(Cl)c(C)c(Cl)c1)C(=O)CCl (centres undefined) ?
active

Hello, I am checking results. What call was entered for CCC(C)Nc1c([N+](=O)[O-])cc(C(C)(C)C)cc1[N+](=O)[O-] (centres undefined) ?
inactive

Hello, I am checking results. What call was entered for CCN(CC)C(=O)SCc1ccc(Cl)cc1 ?
inactive

Hello, I am checking results. What call was entered for O=C(O)CCCOc1ccc(Cl)cc1Cl ?
inactive

Hello, I am checking results. What call was entered for CC(C)OC(=O)Nc1cccc(Cl)c1 ?
inactive

Hello, I am checking results. What call was entered for CCCN(CCC)c1c([N+](=O)[O-])cc(C(F)(F)F)cc1[N+](=O)[O-] ?
inactive

Hello, I am checking results. What call was entered for CCOCN(C(=O)CCl)c1c(C)cccc1CC ?
inactive

Hello, I am checking results. What call was entered for CCc1ccc(C(=O)NN(C(=O)c2cc(C)cc(C)c2)C(C)(C)C)cc1 ?
inactive

Hello, I am checking results. What call was entered for N#Cc1c(Cl)c(Cl)c(Cl)c(C#N)c1Cl ?
active

Hello, I am checking results. What call was entered for CCC(C)(C)C(=O)OC1=C(c2ccc(Cl)cc2Cl)C(=O)OC12CCCCC2 ?
inactive

Hello, I am checking results. What call was entered for CNC(=O)/C=C(\C)OP(=O)(OC)OC ?
inactive

Hello, I am checking results. What call was entered for Clc1ccccc1-c1nnc(-c2ccccc2Cl)nn1 ?
inactive

Hello, I am checking results. What call was entered for O=S1OCC2C(CO1)C1(Cl)C(Cl)=C(Cl)C2(Cl)C1(Cl)Cl (centres undefined) ?
inactive

Hello, I am checking results. What call was entered for Cc1[nH]c(=O)n(C(C)(C)C)c(=O)c1Cl ?
inactive

Hello, I am checking results. What call was entered for CC[C@H](C)[C@H]1O[C@]2(C=C[C@@H]1C)C[C@@H]1C[C@@H](C/C=C(\C)[C@@H](O[C@H]3C[C@H](OC)[C@@H](O[C@H]4C[C@H](OC)[C@@H](O)[C@H](C)O4)[C@H](C)O3)[C@@H](C)/C=C/C=C3\CO[C@@H]4[C@H](O)C(C)=C[C@@H](C(=O)O1)[C@]34O)O2 (tested in a mixture with another compound) ?
active

Hello, I am checking results. What call was entered for CC(C)N(C(=O)COc1nnc(C(F)(F)F)s1)c1ccc(F)cc1 ?
inactive

Hello, I am checking results. What call was entered for CNC(=O)Oc1cccc(N=CN(C)C)c1 ?
inactive

====

Read-out: Monokine induced gamma interferon (MIG), CXCL9 (gene 4283)
Assay: BSK_hDFCGF_MIG: BioMAP Diversity Plus: hDFCGF Assay for Monokine induced gamma interferon (MIG) Biomarker Activity (AID 2283063)
Conditions: primary human foreskin fibroblasts; actives raise or lower the signal
The source made the active and inactive calls. The calls were made as follows: active = hit-call score of the fitted dose curve at least 0.9, where 1 is the maximum; inactive = score below 0.9.
Your answer must be one of the following: active, inactive

CNC(=O)Oc1cccc(N=CN(C)C)c1
active
O=C(Nc1ccccc1)Nc1cnns1
inactive
CCOc1nc(NC)nc(NC(=O)NS(=O)(=O)c2ccccc2C(=O)OC)n1
inactive
CCS(=O)(=O)c1cccnc1S(=O)(=O)NC(=O)Nc1nc(OC)cc(OC)n1
inactive
CNC(=O)CSP(=S)(OC)OC
inactive
O=[N+]([O-])/N=C1\NCCN1Cc1ccc(Cl)nc1
inactive

Please look at the following compound next.
Hello, I am checking results. What call was entered for CN1CSC(=S)N(C)C1 ?
active
